Molecular target: Q46 protein aggregates (Homo sapiens)
Construct: fused on or other part: GST at the N-terminus, cut off with thrombin before the test to start aggregation; The wells held aggregated Q46 without GST
Sequence (P42858 with tags, fused parts or gaps with the stated changes, form open): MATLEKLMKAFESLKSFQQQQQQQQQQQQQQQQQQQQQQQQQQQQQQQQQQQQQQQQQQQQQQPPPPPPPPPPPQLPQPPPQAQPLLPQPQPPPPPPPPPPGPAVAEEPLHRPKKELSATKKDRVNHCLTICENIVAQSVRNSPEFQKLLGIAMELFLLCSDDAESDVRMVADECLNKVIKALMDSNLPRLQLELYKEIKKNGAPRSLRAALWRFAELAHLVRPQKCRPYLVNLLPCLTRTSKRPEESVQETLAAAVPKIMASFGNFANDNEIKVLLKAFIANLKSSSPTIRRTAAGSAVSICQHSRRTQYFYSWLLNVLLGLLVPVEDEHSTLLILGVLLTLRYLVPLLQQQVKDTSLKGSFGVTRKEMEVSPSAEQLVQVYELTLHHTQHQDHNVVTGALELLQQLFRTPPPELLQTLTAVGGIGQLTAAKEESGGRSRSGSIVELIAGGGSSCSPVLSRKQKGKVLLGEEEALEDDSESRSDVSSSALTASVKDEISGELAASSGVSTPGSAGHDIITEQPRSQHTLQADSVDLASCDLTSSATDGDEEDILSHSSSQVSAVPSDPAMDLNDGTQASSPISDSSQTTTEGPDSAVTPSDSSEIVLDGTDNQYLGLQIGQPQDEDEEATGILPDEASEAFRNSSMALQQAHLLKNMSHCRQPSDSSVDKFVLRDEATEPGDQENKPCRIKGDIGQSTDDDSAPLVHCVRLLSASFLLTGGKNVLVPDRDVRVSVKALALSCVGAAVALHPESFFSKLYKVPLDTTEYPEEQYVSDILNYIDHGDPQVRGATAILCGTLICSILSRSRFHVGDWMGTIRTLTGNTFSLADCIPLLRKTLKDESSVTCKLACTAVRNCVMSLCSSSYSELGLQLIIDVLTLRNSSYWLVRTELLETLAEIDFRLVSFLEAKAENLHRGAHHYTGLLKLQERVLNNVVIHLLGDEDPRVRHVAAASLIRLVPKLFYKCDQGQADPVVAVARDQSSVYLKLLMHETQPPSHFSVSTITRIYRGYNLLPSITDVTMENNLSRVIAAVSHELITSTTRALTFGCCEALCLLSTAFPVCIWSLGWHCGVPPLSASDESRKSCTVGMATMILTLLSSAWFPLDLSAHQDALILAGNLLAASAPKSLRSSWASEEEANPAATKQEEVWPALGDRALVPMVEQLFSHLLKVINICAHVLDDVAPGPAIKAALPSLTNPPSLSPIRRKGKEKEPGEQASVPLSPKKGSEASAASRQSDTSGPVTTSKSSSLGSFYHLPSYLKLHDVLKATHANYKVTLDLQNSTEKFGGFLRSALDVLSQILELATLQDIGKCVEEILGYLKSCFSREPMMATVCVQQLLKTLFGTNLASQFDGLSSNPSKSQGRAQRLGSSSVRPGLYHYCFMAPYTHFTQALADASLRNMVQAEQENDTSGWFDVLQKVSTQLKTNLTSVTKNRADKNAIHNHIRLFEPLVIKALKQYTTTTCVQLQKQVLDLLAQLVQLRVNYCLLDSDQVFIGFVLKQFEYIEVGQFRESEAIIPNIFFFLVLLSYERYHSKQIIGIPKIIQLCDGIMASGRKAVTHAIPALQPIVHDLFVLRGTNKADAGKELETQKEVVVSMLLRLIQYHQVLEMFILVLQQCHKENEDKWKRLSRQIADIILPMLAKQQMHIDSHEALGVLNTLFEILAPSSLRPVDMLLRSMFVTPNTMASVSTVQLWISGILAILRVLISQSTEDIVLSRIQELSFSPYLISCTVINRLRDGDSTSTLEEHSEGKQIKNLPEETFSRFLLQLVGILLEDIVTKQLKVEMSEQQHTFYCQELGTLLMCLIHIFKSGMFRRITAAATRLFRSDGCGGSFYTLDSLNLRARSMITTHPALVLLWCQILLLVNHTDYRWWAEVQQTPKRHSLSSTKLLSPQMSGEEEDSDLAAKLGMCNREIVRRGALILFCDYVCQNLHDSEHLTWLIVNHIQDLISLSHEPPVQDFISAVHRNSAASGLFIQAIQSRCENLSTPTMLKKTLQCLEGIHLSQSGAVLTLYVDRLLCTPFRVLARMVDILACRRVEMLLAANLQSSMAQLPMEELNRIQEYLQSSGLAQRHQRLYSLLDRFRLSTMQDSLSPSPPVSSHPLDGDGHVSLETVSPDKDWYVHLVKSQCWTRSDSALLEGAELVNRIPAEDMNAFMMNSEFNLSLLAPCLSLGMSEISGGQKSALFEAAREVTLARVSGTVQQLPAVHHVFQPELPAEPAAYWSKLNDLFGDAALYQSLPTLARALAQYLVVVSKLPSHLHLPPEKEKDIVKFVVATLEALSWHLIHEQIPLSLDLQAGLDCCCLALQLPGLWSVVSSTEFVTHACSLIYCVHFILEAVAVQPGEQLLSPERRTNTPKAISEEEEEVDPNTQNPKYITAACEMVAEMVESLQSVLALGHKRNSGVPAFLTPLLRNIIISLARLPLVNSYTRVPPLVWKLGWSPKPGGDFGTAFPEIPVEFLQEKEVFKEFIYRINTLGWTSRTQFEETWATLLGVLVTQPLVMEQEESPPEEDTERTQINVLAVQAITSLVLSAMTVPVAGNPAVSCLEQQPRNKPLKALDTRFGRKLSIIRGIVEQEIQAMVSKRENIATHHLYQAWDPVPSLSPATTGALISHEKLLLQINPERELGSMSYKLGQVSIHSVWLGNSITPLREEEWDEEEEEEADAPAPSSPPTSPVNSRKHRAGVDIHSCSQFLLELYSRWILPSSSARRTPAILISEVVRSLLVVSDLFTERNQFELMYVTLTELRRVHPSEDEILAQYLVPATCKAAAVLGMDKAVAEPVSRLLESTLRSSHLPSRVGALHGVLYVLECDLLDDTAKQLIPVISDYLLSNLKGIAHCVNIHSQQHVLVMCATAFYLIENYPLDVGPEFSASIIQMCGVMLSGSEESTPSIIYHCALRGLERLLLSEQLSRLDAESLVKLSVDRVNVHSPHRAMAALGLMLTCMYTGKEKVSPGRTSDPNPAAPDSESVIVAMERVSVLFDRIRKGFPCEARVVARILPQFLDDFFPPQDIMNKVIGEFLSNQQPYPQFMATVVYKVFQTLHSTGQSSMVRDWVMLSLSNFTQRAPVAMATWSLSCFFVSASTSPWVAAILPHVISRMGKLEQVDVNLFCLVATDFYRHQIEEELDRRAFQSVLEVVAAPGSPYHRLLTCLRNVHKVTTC
Assay: Q46 radioligand binding assay (RBA)
Conditions: 10 nM ligand [3H3]MK-3328
For each entry below, report its IC50 value.

(Q) Please look up its IC50: `c1ccc(OCCOc2ccc3oc(-c4cccnc4)nc3c2)nc1`
(A) 100 to 500 nM

(Q) Same question for `Cc1cc(C(=O)Nc2ccc3oc(-c4cccnc4)nc3c2)ccn1` please.
(A) < 100 nM

(Q) Subsequent entry: `O=C(Nc1ccc2oc(-c3cccnc3)nc2c1)c1ccc(COc2ccccc2)cc1`
(A) < 100 nM

(Q) Likewise for `CNC(=O)c1ccc(-c2nc3cc(OCc4ccc(OC)cn4)ccc3o2)c[n+]1[O-]` ?
(A) < 100 nM

(Q) Consider next the molecule `COc1cc(C(=O)Nc2ccc3oc(-c4cccnc4)nc3c2)on1` in the same way.
(A) < 100 nM

(Q) Proceed to `COc1ccc(COc2ccc3oc(-c4ccc5ccccc5n4)nc3c2)nc1`
(A) < 100 nM

(Q) Try `COc1cnc(COc2cnc3oc(-c4cccnc4)nc3c2)nc1` next.
(A) < 100 nM

(Q) Now the molecule `COc1cnc2c(c1)CN(c1ccc3oc(-c4cccnc4)nc3c1)C2=O`
(A) < 100 nM

(Q) How about `O=C(Nc1ccc2oc(-c3cccnc3)nc2c1)c1cc(O)ccn1` ?
(A) 100 to 500 nM

(Q) Now give it for `COc1cnc(COc2ccc3c(c2)nc(-c2cccnc2)n3C)cn1` too.
(A) 100 to 500 nM

(Q) Likewise for `COc1ccc(COc2ccc3oc(-c4cn(C)c(=O)cn4)nc3c2)nc1` ?
(A) < 100 nM

Provenance of the data: patent US12258355B2
